Below, each entry is listed alongside its reported MIC90.
Test system: Cryptococcus neoformans
Assay: Antimicrobial activity against Cryptococcus neoformans var. grubii obtained from non-AIDS patient by broth microdilution method
Format: functional
reportedMetric: MIC90 (µg/mL)

{"molecule": "Nc1nc(=O)[nH]cc1F", "reportedMetric": "MIC90", "obsValue": 4}
{"molecule": "CCC(C)n1ncn(-c2ccc(N3CCN(c4ccc(OCC5COC(Cn6cncn6)(c6ccc(Cl)cc6Cl)O5)cc4)CC3)cc2)c1=O (stereo not given)", "reportedMetric": "MIC90", "obsValue": 0.063}
{"molecule": "C[C@@H](c1ncncc1F)[C@](O)(Cn1cncn1)c1ccc(F)cc1F", "reportedMetric": "MIC90", "obsValue": 0.063}
{"molecule": "CC[C@@H]([C@H](C)O)n1ncn(-c2ccc(N3CCN(c4ccc(OC[C@@H]5CO[C@@](Cn6cncn6)(c6ccc(F)cc6F)C5)cc4)CC3)cc2)c1=O", "reportedMetric": "MIC90", "obsValue": 0.125}
{"molecule": "C[C@@H](c1nc(-c2ccc(C#N)cc2)cs1)[C@](O)(Cn1cncn1)c1cc(F)ccc1F", "reportedMetric": "MIC90", "obsValue": 0.031}
